# Target system: human MC4R receptor (human, UniProt P32245 1-332)
# Sequence (P32245 whole entry): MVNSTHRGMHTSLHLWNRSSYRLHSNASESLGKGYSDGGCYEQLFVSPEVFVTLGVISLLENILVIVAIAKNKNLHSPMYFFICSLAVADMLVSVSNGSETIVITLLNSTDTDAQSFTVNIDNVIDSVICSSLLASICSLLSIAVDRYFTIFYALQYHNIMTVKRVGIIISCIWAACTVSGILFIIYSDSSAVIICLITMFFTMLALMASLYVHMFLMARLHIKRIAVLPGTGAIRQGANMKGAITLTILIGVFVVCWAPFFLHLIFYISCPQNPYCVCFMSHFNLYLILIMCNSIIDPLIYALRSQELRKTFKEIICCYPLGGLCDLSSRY
# Test protocol: cell-based or functional assay
Positions of bridges follow the written chain, without caps; N, C: chain ends. Non-standard residues stand in square brackets, D forms with d. Cit = NC(=O)NCCC[C@H](N)C(=O)O; Aib = CC(C)(N)C(=O)O
Assay endpoint: cAMP EC50 (nM)
Unit nM implied. Number only.

Give cAMP EC50 for the following binder: Ac-C[Aib][Cit][dF]RWC-NH2 (disulfide 1-7; SMILES CC(=O)N[C@H]1CSSC[C@@H](C(N)=O)NC(=O)[C@H](Cc2c[nH]c3ccccc23)NC(=O)[C@H](CCCNC(=N)N)NC(=O)[C@@H](Cc2ccccc2)NC(=O)[C@H](CCCNC(N)=O)NC(=O)C(C)(C)NC1=O) [CTX-1633]
2.8

Given Ac-C[Aib]R[dF]RWC-NH2 (disulfide 1-7; SMILES CC(=O)N[C@H]1CSSC[C@@H](C(N)=O)NC(=O)[C@H](Cc2c[nH]c3ccccc23)NC(=O)[C@H](CCCNC(=N)N)NC(=O)[C@@H](Cc2ccccc2)NC(=O)[C@H](CCCNC(=N)N)NC(=O)C(C)(C)NC1=O) [CTX-1632] , respond with its cAMP EC50.
0.51

Read the entry {CH2CO}-[Aib]R[dF]RWC-NH2 (thioether N-6; SMILES CC1(C)NC(=O)CSC[C@@H](C(N)=O)NC(=O)[C@H](Cc2c[nH]c3ccccc23)NC(=O)[C@H](CCCNC(=N)N)NC(=O)[C@@H](Cc2ccccc2)NC(=O)[C@H](CCCNC(=N)N)NC1=O) [CTX-1648] and write its reported cAMP EC50.
1.1
